test: small-molecule microarray binders of probe aShh, primary screen, biochemical, biotinylated probe, 635/667 nm fluorescence (AID 1114); conditions: higher = more signal;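 also: probe is biotin-labelled aShh protein from a stem cell growth factor screen; measures binding of labelled protein to compounds printed on the slide; score merges feature fluorescence at 667 nm with signal-to-noise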
Please respond with reported composite z-score for every item in the list.
One number for each entry.

Check out these entries, answers already filled in.
CC1(C)C(=O)C(c2ccccc2)=C2CN3C(=O)N(CCc4ccccc4)C(=O)C3(Cc3ccc(C(F)(F)F)cc3)C=C21 (stereo not drawn) ... 1.05
NC(=O)N1C(=O)C2C(C1=O)C1C=C(CCCO)C2C(C2CC2)N1Cc1cccc(OC(F)(F)F)c1 (stereo not drawn) ... -0.138
O=C(NCCN1CCOCC1)[C@@H]1c2ccccc2C(=O)N(Cc2ccccc2)[C@H]1c1ccc(CO)cc1 ... 0.214
COCCCNC(=O)[C@@]1(c2ccc([N+](=O)[O-])cc2)CC(=O)N(C(C)C)[C@@H]1c1ccc(CO)cc1 ... -0.211

For every item in the list below, what is its measured composite z-score?
1. O=C(N1CCOCC1)[C@@]1(CCS(=O)(=O)c2ccccc2)N=C(c2ccc(OCCCO)cc2)O[C@H]1c1ccccc1
2. O=C1N[C@@H](Cc2ccccc2)C(=O)N2[C@@H]1C[C@@H](C(=O)O)[C@H]2c1ccc(O)cc1
3. C=CCNC(=O)[C@@H]1[C@H]2C(=O)O[C@H](c3ccccc3)[C@H](c3ccccc3)N2[C@H](c2ccc(OCCO)cc2)[C@@]12C(=O)N(C(=O)OCCOC)c1ccc(C#CCCO)cc12

[A]
[-0.0441, 0.0711, -0.0769]

[Q] So what's the measured composite z-score for this one? [N-]=[N+]=NC[C@H](Cc1ccccc1)NC(=O)c1ccccc1
[A] -0.0146

----------
Field: composite z-score. Provide a value for each of the compounds that follow.
test system: Human papillomavirus type 1a E7 protein (residues 1-88); assay: HPV1a E7 small-molecule binders, primary screen, biochemical, small-molecule microarray, residues 1-88, 635 nm (AID 1129); settings: small-molecule microarray binding, fluorescence 635 nm; higher = more signal
Numbers only.

CN(C)C(=O)[C@@]1(Cc2ccccc2)COC(c2ccc(OCCCO)cc2)=N1 ... 0.672
C=CCOC(=O)[C@H]1[C@@H]2C(=O)O[C@@H](c3ccccc3)[C@@H](c3ccccc3)N2[C@@H](c2ccc(OCCOC(=O)[C@H]3C[C@H]4C(=O)N[C@@H](CCCCNC(C)=O)C(=O)N4[C@H]3c3cccc(OCCO)c3)cc2)[C@]12C(=O)Nc1ccc(I)cc12 ... 1.15
CC(C)C[C@@H]1NC(=O)[C@H]2C[C@@H](C(=O)NCCCCCN)[C@@H](c3cccc(OCCO)c3)N2C1=O ... 0.334
CC(C)CNC(=O)[C@@H]1c2ccccc2C(=O)N(C2CCCCC2)[C@H]1c1ccc(CO)cc1 ... 0.589

Required: composite z-score, one value per compound below.
1. C=C(COC)/C(=C/C[C@H](OC(C)=O)c1cccc(OCCO)c1)c1cnc2ccccc2c1
2. CC(=O)NCCCC[C@@H]1NC(=O)[C@@H]2C[C@H](C(=O)NCCCCCCN)[C@H](c3cccc(OCCO)c3)N2C1=O
3. C=C(/C(=C/C[C@@H](OC(=O)c1ccncc1)c1cccc(OCCO)c1)c1cnc2ccccc2c1)C(C)C
4. C=C[C@@H](C)[C@H](O)c1ccc(OCCO)cc1
5. O=C(N1CCOCC1)[C@@]1(CCS(=O)(=O)c2ccccc2)N=C(c2ccc(OCCCO)cc2)O[C@H]1c1ccccc1

[A]
1.02
0.286
1.09
-0.535
1.25

----------
assay: HepG2 liver cancer cell viability effects, profiling panel, resazurin fluorescence, 24 h, PK04 Diversity Set (AID 1172); conditions: higher = more signal
VALUE_KIND: z-score
Answers are plain numbers.

C=CCC(OC(C)=O)[C@@H]1[C@@H](N(Cc2ccc(-c3cccc(C(F)(F)F)c3)o2)C(=O)c2ccc(C)cc2)c2cc(OCCCO)ccc2N1C(=O)Cc1ccc(OC)cc1 (stereo partly drawn) ... 0.91
NC(=O)[C@H]1[C@@H]2C(=O)O[C@@H](c3ccccc3)[C@@H](c3ccccc3)N2[C@@H](c2ccc(O)cc2)[C@]12C(=O)Nc1ccc(C#CC3=CCCCC3)cc12 ... -0.111
CCOC(=O)C1=C[C@@H](c2ccccc2)N(S(=O)(=O)c2ccc(C)cc2)[C@H]1c1ccccc1 ... -0.443

Give one value of z-score per listed molecule.
1. CN(C)C(=O)[C@@]1(Cc2ccccc2N=[N+]=[N-])N=C(c2ccc(OCCCO)cc2)O[C@H]1c1ccccc1
2. COc1cc(NN2C(C(O)C3CCCCC3)C=CC3C(=O)N(c4ccccc4)C(=O)C32)cc(OC)c1OC (stereo not drawn)
3. COC(=O)[C@@]1(Cc2ccccc2)[C@H]2c3cc(C(=O)N4CCCC4)n(CCSCCO)c3C[C@H]2CN1C(=O)c1ccccc1
4. COCCOC(=O)N1C(=O)[C@@]2(c3cc(C#Cc4ccc(OC)cc4)ccc31)[C@H](C(=O)NC[C@H](O)c1ccccc1)[C@H]1C(=O)O[C@H](c3ccccc3)[C@H](c3ccccc3)N1[C@@H]2c1ccc(OCCO)cc1

[A]
1: 0.329; 2: -1.64; 3: -1.19; 4: 1.21

Quick request: z-score for each listed item, please.
1. COCCOC(=O)N1C(=O)[C@@]2(c3cc(C#CC4=CCCCC4)ccc31)[C@H](C(=O)N1CCCCCCC1)[C@H]1C(=O)O[C@H](c3ccccc3)[C@H](c3ccccc3)N1[C@@H]2c1ccc(OCCO)cc1
2. COc1ccc([Si](C)(C)[C@H]2[C@H](CC(=O)N3CCC[C@H]3CO)O[C@@]3(C(=O)N(Cc4ccc(N5CCC5=O)cc4)c4ccccc43)[C@@H]2C)cc1
3. CCCCCCCCCCC(O)C1C=CC2C(=O)N(C)C(=O)C2N1Nc1cc(OC)c(OC)c(OC)c1 (stereo not drawn)
4. NCCCCCNC(=O)[C@H]1C[C@H]2C(=O)N[C@@H](Cc3ccccc3)C(=O)N2[C@H]1c1ccc(O)cc1

[A]
0.111
-1.39
-2.36
-0.255

Quick request: z-score for each listed item, please.
1. COc1ccc(CCNC(=O)[C@@]2(Cc3ccccc3I)c3ccccc3C(=O)N(Cc3ccccc3Cl)[C@H]2c2ccc(CO)cc2)cc1
2. C=CCC(OC(C)=O)[C@@H]1[C@@H](N(Cc2cccc3ccccc23)C(=O)c2ccc(-c3ccccc3)cc2)c2cc(OCCCO)ccc2N1C(=O)c1ccc(-c2ccccc2)cc1 (stereo partly drawn)

[A]
-0.0135
-0.132

----------
tested on: XIP peptide (Xip251-270) binding; test: small-molecule binders of XIP peptide, primary screen, biochemical, small-molecule microarray, fluorescence 635/667 nm, 0.1 µg/mL protein (AID 1182); conditions: fluorescent protein binding, 635 nm, higher = more signal, called active from +8 up or from −8 down
Activity calls are given as the source filed them.
VALUE_KIND: composite z-score

Look over these answered cases.
CS(=O)(=O)CCOC(=O)C1=CC(CCCO)=CC(C2CC2)N(Cc2cccc(OC(F)(F)F)c2)C=C1C(=O)OCCS(C)(=O)=O (centres undefined) ... 0.892 (inactive)
COc1cccc(/C=C(\C#N)C(=O)Nc2c(C)n(C)n(-c3ccccc3)c2=O)c1 ... 0.0887 (inactive)
COc1ccc(C(=O)Nc2cccc(CN3C(=O)[C@@]4(O[C@@H](CC(=O)N(CCO)Cc5ccccc5)[C@H]([Si](C)(C)c5ccc(OC)cc5)[C@H]4C)c4ccccc43)c2)cc1 ... 1.31 (inactive)
C=C[C@H](C)[C@H](OC(=O)Nc1ccc(OC)cc1)c1ccc(OCCO)cc1 ... 0.526 (inactive)
COc1ccc([Si](C)(C)[C@@H]2[C@@H](CC(=O)N3Cc4ccccc4C[C@H]3CO)O[C@]3(C(=O)N(Cc4ccc(N5CCC5=O)cc4)c4ccccc43)[C@H]2C)cc1 ... 1.08 (inactive)

Hi! Can you tell me composite z-score for each of these compounds?
1. COc1cc2c(cc1O)C(c1ccc(CN3CCCC3)cc1)N(C)CC2 (centres undefined)
2. O=C1[C@@]23C=C(Br)[C@H](C[C@@H]2COC3)[C@@]12CO2
3. Cc1ccc(S[C@]2(C(=O)NC(C)C)CC(=O)N(Cc3ccccc3Cl)[C@@H]2c2ccc(CO)cc2)cc1
4. COCC1=C2[C@@H](CCc3ccccc3)OB(O)C[C@@H]2[C@@H]2C(=O)N(C)C(=O)[C@@H]2C1
5. CC(C)CNC(=O)[C@@]1(C)c2ccccc2C(=O)N(Cc2cc(C(F)(F)F)cc(C(F)(F)F)c2)[C@H]1c1ccc(CO)cc1

[A]
["-0.389 (inactive)", "-0.0944 (inactive)", "0.73 (inactive)", "0.0872 (inactive)", "-0.337 (inactive)"]

List the reported composite z-score of each compound below.
1. C=C(/C(=C/C[C@H](OC(=O)c1ccncc1)c1cccc(OCCO)c1)c1cnc2ccccc2c1)C(C)C
2. C=C(COC)C(=O)CC[C@@H](OC(=O)c1cccnc1)c1ccccc1OCCO
3. COCCOC(=O)N1C(=O)[C@@]2(c3cc(C#CC4(O)CCCCCC4)ccc31)[C@H](c1ccc(OCCO)cc1)N1[C@H](c3ccccc3)[C@H](c3ccccc3)OC(=O)[C@H]1[C@@H]2C(=O)Nc1nc2ccccc2s1
4. CC(C)C(=C=CC[C@H](O)c1cccc(OCCO)c1)CCO
5. C=CCC(OC(C)=O)[C@@H]1[C@@H](N(Cc2ccc(-c3cccc(C(F)(F)F)c3)o2)C(=O)Cc2ccc(OC)cc2)c2cc(OCCCO)ccc2N1C(=O)Cc1ccc2ccccc2c1 (some centres undefined)
6. CN(C)C(=O)[C@@]1(CCC(=O)OC(C)(C)C)N=C(c2ccc(OCCCO)cc2)O[C@H]1c1ccccc1CN=[N+]=[N-]
7. COCCCNC(=O)[C@@]1(c2ccc([N+](=O)[O-])cc2)CC(=O)N(C(C)C)[C@@H]1c1ccc(CO)cc1

[A]
1: 0.0082 (inactive); 2: -0.288 (inactive); 3: 0.284 (inactive); 4: 0.675 (inactive); 5: 0.0389 (inactive); 6: 1.14 (inactive); 7: -1.3 (inactive)
